# protocol.details: cells
# condition.summary: Homo sapiens, NZB5
Each entry below carries its reported IC50.
observed.property: IC50 (nM)

[[record]]
record_smiles = "CNC(=O)c1cccc2c1nc(C(F)F)n2-c1nc(N2CCOCC2)nc(N2CCOCC2)n1"
recorded_value = 480

[[record]]
record_smiles = "CCCOc1cccc2c1nc(C(F)F)n2-c1nc(N2CCOCC2)nc(N2CCOCC2)n1"
recorded_value = 70

[[record]]
record_smiles = "COc1cccc2c1nc(C(F)F)n2-c1nc(N2CCOCC2)nc(N2CCOCC2)n1"
recorded_value = 50

[[record]]
record_smiles = "CSCc1nc2ccccc2n1-c1nc(N2CCOCC2)nc(N2CCOCC2)n1"
recorded_value = 83

[[record]]
record_smiles = "COc1cc(OC)c2nc(C(F)F)n(-c3nc(N4CCOCC4)nc(N4CCOCC4)n3)c2c1"
recorded_value = 95


====

Each entry below carries its reported pIC50.
# experimental.system: Phosphatidylinositol 4,5-bisphosphate 3-kinase catalytic subunit alpha isoform (Mus musculus, UniProt P42337)
# Sequence (P42337 whole entry, canonical isoform): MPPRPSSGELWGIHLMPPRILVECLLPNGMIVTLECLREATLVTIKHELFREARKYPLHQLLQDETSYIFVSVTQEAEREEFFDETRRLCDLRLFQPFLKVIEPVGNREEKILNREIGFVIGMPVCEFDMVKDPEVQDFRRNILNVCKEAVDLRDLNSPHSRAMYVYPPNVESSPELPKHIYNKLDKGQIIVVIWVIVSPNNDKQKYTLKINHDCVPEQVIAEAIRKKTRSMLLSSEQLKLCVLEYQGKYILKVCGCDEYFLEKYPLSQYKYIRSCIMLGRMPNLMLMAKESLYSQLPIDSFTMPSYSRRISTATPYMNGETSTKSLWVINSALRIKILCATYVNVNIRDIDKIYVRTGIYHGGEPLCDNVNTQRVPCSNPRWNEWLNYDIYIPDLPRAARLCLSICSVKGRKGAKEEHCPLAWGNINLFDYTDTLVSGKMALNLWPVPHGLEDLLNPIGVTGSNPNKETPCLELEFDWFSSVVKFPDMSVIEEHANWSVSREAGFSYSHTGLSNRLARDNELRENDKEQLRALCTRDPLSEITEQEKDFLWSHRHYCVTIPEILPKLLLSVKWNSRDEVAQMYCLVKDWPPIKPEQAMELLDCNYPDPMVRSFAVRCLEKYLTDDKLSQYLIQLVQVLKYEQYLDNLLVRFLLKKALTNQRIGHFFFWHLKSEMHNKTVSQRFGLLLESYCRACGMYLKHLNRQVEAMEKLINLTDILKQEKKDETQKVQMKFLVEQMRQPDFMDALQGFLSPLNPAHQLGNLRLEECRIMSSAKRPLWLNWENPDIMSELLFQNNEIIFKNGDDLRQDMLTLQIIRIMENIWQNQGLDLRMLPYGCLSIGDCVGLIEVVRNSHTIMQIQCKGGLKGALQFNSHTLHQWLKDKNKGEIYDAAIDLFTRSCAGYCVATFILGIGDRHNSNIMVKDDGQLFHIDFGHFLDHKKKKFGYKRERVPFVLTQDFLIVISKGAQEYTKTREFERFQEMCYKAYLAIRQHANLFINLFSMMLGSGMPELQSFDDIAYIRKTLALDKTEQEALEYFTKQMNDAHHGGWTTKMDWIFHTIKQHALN
# protocol.details: Inhibition of mouse recombinant PI3K p110alpha expressed in Sf21 insect cells using phosphatidylinositol as substrate after 1 hr by phosphoimaging
pIC50: −log10 of the molar value.
observed.property: pIC50

[[record]]
record_smiles = "FC(F)Oc1cccc2c1nc(C(F)F)n2-c1nc(N2CCOCC2)nc(N2CCOCC2)n1"
reading_qualifier = "="
recorded_value = 7.59

[[record]]
record_smiles = "CCOc1cccc2c1nc(C(F)F)n2-c1nc(N2CCOCC2)nc(N2CCOCC2)n1"
reading_qualifier = "="
recorded_value = 8.57

[[record]]
record_smiles = "CNc1cc(OC)c2nc(C(F)F)n(-c3nc(N4CCOCC4)nc(N4CCOCC4)n3)c2c1"
reading_qualifier = "="
recorded_value = 8.70

[[record]]
record_smiles = "Oc1cccc2c1nc(C(F)F)n2-c1nc(N2CCOCC2)nc(N2CCOCC2)n1"
reading_qualifier = "="
recorded_value = 9.05

[[record]]
record_smiles = "FCc1nc2ccccc2n1-c1nc(N2CCOCC2)nc(N2CCOCC2)n1"
reading_qualifier = "="
recorded_value = 7.47

[[record]]
record_smiles = "CNC(=O)c1cccc2c1nc(C(F)F)n2-c1nc(N2CCOCC2)nc(N2CCOCC2)n1"
reading_qualifier = "="
recorded_value = 6.53

[[record]]
record_smiles = "c1ccc2c(c1)ncn2-c1nc(N2CCOCC2)nc(N2CCOCC2)n1"
reading_qualifier = "="
recorded_value = 6.58

[[record]]
record_smiles = "CS(=O)(=O)Oc1cccc2c1nc(C(F)F)n2-c1nc(N2CCOCC2)nc(N2CCOCC2)n1"
reading_qualifier = "="
recorded_value = 6.53

[[record]]
record_smiles = "COc1ccc2c(nc(C(F)F)n2-c2nc(N3CCOCC3)nc(N3CCOCC3)n2)c1OC"
reading_qualifier = "="
recorded_value = 6.47

[[record]]
record_smiles = "COc1cccc2c1nc(C(F)F)n2-c1nc(N2CCOCC2)nc(N2CCOCC2)n1"
reading_qualifier = "="
recorded_value = 8.57

[[record]]
record_smiles = "NC(=O)c1cccc2c1nc(C(F)F)n2-c1nc(N2CCOCC2)nc(N2CCOCC2)n1"
reading_qualifier = "<"
recorded_value = 6.00

[[record]]
record_smiles = "FC(F)(F)c1nc2ccccc2n1-c1nc(N2CCOCC2)nc(N2CCOCC2)n1"
reading_qualifier = "="
recorded_value = 6.69

[[record]]
record_smiles = "CCCOc1cccc2c1nc(C(F)F)n2-c1nc(N2CCOCC2)nc(N2CCOCC2)n1"
reading_qualifier = "="
recorded_value = 7.80

[[record]]
record_smiles = "CS(=O)(=O)c1nc2ccccc2n1-c1nc(N2CCOCC2)nc(N2CCOCC2)n1"
reading_qualifier = "="
recorded_value = 6.69

[[record]]
record_smiles = "CNc1cccc2c1nc(C(F)F)n2-c1nc(N2CCOCC2)nc(N2CCOCC2)n1"
reading_qualifier = "="
recorded_value = 6.68

[[record]]
record_smiles = "CSc1nc2ccccc2n1-c1nc(N2CCOCC2)nc(N2CCOCC2)n1"
reading_qualifier = "="
recorded_value = 5.54

[[record]]
record_smiles = "COc1cc(N(C)C)cc2c1nc(C(F)F)n2-c1nc(N2CCOCC2)nc(N2CCOCC2)n1"
reading_qualifier = "="
recorded_value = 8.10

[[record]]
record_smiles = "FC(F)c1nc2ccccc2n1-c1nc(N2CCOCC2)cc(N2CCOCC2)n1"
reading_qualifier = "="
recorded_value = 7.52


====

# protocol.details: Half life in CD1 mouse at 10 mg/kg, ip administered as single dose by LC-MS/MS analysis
# Assay type: ADME, organism-based
# Set-up: dose 10 mg/kg, route intraperitoneal
# condition.summary: in vivo
observed.property: half-life (min)

[[record]]
record_smiles = "FC(F)c1nc2ccccc2n1-c1nc(N2CCOCC2)nc(N2CCOCC2)n1"
uom = "min"
recorded_value = 91.2

[[record]]
record_smiles = "COc1cc(N)cc2c1nc(C(F)F)n2-c1nc(N2CCOCC2)nc(N2CCOCC2)n1"
uom = "min"
recorded_value = 88.8

[[record]]
record_smiles = "Oc1cccc2c1nc(C(F)F)n2-c1nc(N2CCOCC2)nc(N2CCOCC2)n1"
uom = "min"
recorded_value = 93


====

# experimental.system: Phosphatidylinositol 4,5-bisphosphate 3-kinase catalytic subunit beta isoform (Homo sapiens, UniProt P42338)
# Sequence (P42338 whole entry, canonical isoform): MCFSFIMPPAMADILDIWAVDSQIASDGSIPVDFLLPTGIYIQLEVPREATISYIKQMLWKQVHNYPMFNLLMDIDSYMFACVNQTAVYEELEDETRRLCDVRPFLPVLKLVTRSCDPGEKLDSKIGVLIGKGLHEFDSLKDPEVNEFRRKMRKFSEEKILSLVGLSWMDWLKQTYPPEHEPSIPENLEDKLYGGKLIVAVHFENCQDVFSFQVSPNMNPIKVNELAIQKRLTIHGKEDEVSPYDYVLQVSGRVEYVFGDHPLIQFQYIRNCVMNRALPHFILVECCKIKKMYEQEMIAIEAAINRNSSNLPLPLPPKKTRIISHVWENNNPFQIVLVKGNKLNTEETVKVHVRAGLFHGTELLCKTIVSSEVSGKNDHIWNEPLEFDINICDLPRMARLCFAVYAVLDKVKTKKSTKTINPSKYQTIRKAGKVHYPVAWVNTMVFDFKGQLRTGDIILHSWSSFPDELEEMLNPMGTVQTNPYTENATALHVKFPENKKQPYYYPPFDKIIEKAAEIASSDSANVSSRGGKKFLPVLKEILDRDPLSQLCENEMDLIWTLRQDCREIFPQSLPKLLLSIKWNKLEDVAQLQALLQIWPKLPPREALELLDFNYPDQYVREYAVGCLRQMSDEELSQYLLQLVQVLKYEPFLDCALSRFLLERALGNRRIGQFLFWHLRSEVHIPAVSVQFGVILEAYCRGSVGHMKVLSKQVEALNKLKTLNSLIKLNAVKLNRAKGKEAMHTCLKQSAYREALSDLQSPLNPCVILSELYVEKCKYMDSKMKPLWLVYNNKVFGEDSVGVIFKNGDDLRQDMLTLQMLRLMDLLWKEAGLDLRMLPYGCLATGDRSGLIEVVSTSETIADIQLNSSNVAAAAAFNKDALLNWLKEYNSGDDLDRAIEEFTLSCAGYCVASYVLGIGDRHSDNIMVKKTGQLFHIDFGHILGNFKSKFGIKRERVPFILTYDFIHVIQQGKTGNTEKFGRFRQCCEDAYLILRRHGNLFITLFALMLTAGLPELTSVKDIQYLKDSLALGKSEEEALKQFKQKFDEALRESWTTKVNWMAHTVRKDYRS
# protocol.details: Inhibition of human recombinant PI3K p110beta expressed in Sf21 insect cells using phosphatidylinositol as substrate after 1 hr by phosphoimaging
pIC50: −log10 of the molar value.
observed.property: pIC50

[[record]]
molecule = "FCc1nc2ccccc2n1-c1nc(N2CCOCC2)nc(N2CCOCC2)n1"
observed_property = "pIC50"
reading_qualifier = "="
recorded_value = 7.28

[[record]]
molecule = "FC(F)c1nc2ccccc2n1-c1cc(N2CCOCC2)nc(N2CCOCC2)n1"
observed_property = "pIC50"
reading_qualifier = "="
recorded_value = 6.77

[[record]]
molecule = "CCCOc1cccc2c1nc(C(F)F)n2-c1nc(N2CCOCC2)nc(N2CCOCC2)n1"
observed_property = "pIC50"
reading_qualifier = "="
recorded_value = 6.29

[[record]]
molecule = "CNc1cc(OC)c2nc(C(F)F)n(-c3nc(N4CCOCC4)nc(N4CCOCC4)n3)c2c1"
observed_property = "pIC50"
reading_qualifier = "="
recorded_value = 9.04

[[record]]
molecule = "CCCCOc1cccc2c1nc(C(F)F)n2-c1nc(N2CCOCC2)nc(N2CCOCC2)n1"
observed_property = "pIC50"
reading_qualifier = "="
recorded_value = 5.62

[[record]]
molecule = "C[S+]([O-])Cc1nc2ccccc2n1-c1nc(N2CCOCC2)nc(N2CCOCC2)n1 (stereo not given)"
observed_property = "pIC50"
reading_qualifier = "="
recorded_value = 6.64

[[record]]
molecule = "OCc1cccc2c1nc(C(F)F)n2-c1nc(N2CCOCC2)nc(N2CCOCC2)n1"
observed_property = "pIC50"
reading_qualifier = "="
recorded_value = 7.17

[[record]]
molecule = "COc1c(O)ccc2c1nc(C(F)F)n2-c1nc(N2CCOCC2)nc(N2CCOCC2)n1"
observed_property = "pIC50"
reading_qualifier = "="
recorded_value = 7.03

[[record]]
molecule = "COc1cccc2c1nc(C(F)F)n2-c1nc(N2CCOCC2)cc(N2CCOCC2)n1"
observed_property = "pIC50"
reading_qualifier = "="
recorded_value = 7.46

[[record]]
molecule = "COc1ccc2c(nc(C(F)F)n2-c2nc(N3CCOCC3)nc(N3CCOCC3)n2)c1OC"
observed_property = "pIC50"
reading_qualifier = "="
recorded_value = 6.10

[[record]]
molecule = "COc1cccc2c1nc(C(F)F)n2-c1nc(N2CCOCC2)nc(N2CCOCC2)n1"
observed_property = "pIC50"
reading_qualifier = "="
recorded_value = 7.60

[[record]]
molecule = "COc1cccc2c1nc(C(F)F)n2-c1cc(N2CCOCC2)nc(N2CCOCC2)n1"
observed_property = "pIC50"
reading_qualifier = "="
recorded_value = 7.40

[[record]]
molecule = "CSc1nc2ccccc2n1-c1nc(N2CCOCC2)nc(N2CCOCC2)n1"
observed_property = "pIC50"
reading_qualifier = "<"
recorded_value = 6.00

[[record]]
molecule = "CS(=O)(=O)Cc1nc2ccccc2n1-c1nc(N2CCOCC2)nc(N2CCOCC2)n1"
observed_property = "pIC50"
reading_qualifier = "="
recorded_value = 6.60

[[record]]
molecule = "Nc1cccc2c1nc(C(F)F)n2-c1nc(N2CCOCC2)nc(N2CCOCC2)n1"
observed_property = "pIC50"
reading_qualifier = "="
recorded_value = 7.39

[[record]]
molecule = "NC(=O)c1cccc2c1nc(C(F)F)n2-c1nc(N2CCOCC2)nc(N2CCOCC2)n1"
observed_property = "pIC50"
reading_qualifier = "<"
recorded_value = 6.00

[[record]]
molecule = "COc1cc(N(C)C)cc2c1nc(C(F)F)n2-c1nc(N2CCOCC2)nc(N2CCOCC2)n1"
observed_property = "pIC50"
reading_qualifier = "="
recorded_value = 7.73

[[record]]
molecule = "COC(=O)c1cccc2c1nc(C(F)F)n2-c1nc(N2CCOCC2)nc(N2CCOCC2)n1"
observed_property = "pIC50"
reading_qualifier = "="
recorded_value = 6.51

[[record]]
molecule = "CNc1cccc2c1nc(C(F)F)n2-c1nc(N2CCOCC2)nc(N2CCOCC2)n1"
observed_property = "pIC50"
reading_qualifier = "="
recorded_value = 6.32

[[record]]
molecule = "CSCc1nc2ccccc2n1-c1nc(N2CCOCC2)nc(N2CCOCC2)n1"
observed_property = "pIC50"
reading_qualifier = "="
recorded_value = 7.41

